System: NCI-H23 complex spheroids with HUVEC/MSC, viability
Test: Anticancer human tumor NCI-H23 cell line growth inhibition [RAS];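 further: spheroids exposed to compound for 7 days; 100% = DMSO vehicle control viability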
Details: second compound 0.1 µM; first compound 0.01 µM; stronger effect = lower value

{"compound": "CC(C)n1nc(-c2ccc3oc(N)nc3c2)c2c(N)ncnc21 + C#Cc1c(F)ccc2cc(O)cc(-c3ncc4c(N5CC6CCC(C5)N6)nc(OCC56CCCN5CC(F)C6)nc4c3F)c12", "target-or-test-system": "NCI-H23 complex spheroids with HUVEC/MSC, viability", "viability, T/C, %": 71.4}
{"compound": "C=CC(=O)Nc1cc(Nc2nccc(-c3cn(C)c4ccccc34)n2)c(OC)cc1N(C)CCN(C)C + C#Cc1c(F)ccc2cc(O)cc(-c3ncc4c(N5CC6CCC(C5)N6)nc(OCC56CCCN5CC(F)C6)nc4c3F)c12", "target-or-test-system": "NCI-H23 complex spheroids with HUVEC/MSC, viability", "viability, T/C, %": 113}
{"compound": "CCN1CCN(Cc2ccc(Nc3ncc(F)c(-c4cc(F)c5nc(C)n(C(C)C)c5c4)n3)nc2)CC1 + C#Cc1c(F)ccc2cc(O)cc(-c3ncc4c(N5CC6CCC(C5)N6)nc(OCC56CCCN5CC(F)C6)nc4c3F)c12", "target-or-test-system": "NCI-H23 complex spheroids with HUVEC/MSC, viability", "viability, T/C, %": 108}
{"compound": "CC(C)n1nc(-c2ccc3oc(N)nc3c2)c2c(N)ncnc21 + C=CC(=O)N1CCN(c2nc(OCC3CCCN3C)nc3c(F)c(-c4nc(N)cc(C)c4C(F)(F)F)c(Cl)cc23)C(C)C1", "target-or-test-system": "NCI-H23 complex spheroids with HUVEC/MSC, viability", "viability, T/C, %": 23.8}
{"compound": "CCN1CCN(Cc2ccc(Nc3ncc(F)c(-c4cc(F)c5nc(C)n(C(C)C)c5c4)n3)nc2)CC1 + C=CC(=O)N1CCN(c2nc(OCC3CCCN3C)nc3c(F)c(-c4nc(N)cc(C)c4C(F)(F)F)c(Cl)cc23)C(C)C1", "target-or-test-system": "NCI-H23 complex spheroids with HUVEC/MSC, viability", "viability, T/C, %": 29.3}

###

Listing of recorded viability, T/C by entry.
System: NCI-H23 complex spheroids with HUVEC/MSC, viability
Experiment: Anticancer human tumor NCI-H23 cell line growth inhibition [RAS];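 further: spheroids exposed to compound for 7 days; 100% = DMSO vehicle control viability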
Settings: second compound 0.0316 µM; first compound 3.16 µM; stronger effect = lower value

{"molecule": "CC(Nc1ccc2c(c1)OCCn1cc(N3C(=O)OCC3C(F)F)nc1-2)C(N)=O (stereo unspecified) + C#Cc1c(F)ccc2cc(O)cc(-c3ncc4c(N5CC6CCC(C5)N6)nc(OCC56CCCN5CC(F)C6)nc4c3F)c12", "viability, T/C / %": 62.9}
{"molecule": "CC1(O)CCCC1n1c(=O)c(C(F)F)cc2cnc(NC3CCN(S(C)(=O)=O)CC3)nc21 (stereo unspecified) + C=CC(=O)N1CCN(c2nc(OCC3CCCN3C)nc3c(F)c(-c4nc(N)cc(C)c4C(F)(F)F)c(Cl)cc23)C(C)C1", "viability, T/C / %": 26.5}
{"molecule": "C[C@@H](NC(=O)c1ncnc(N)c1Cl)c1ncc(C(=O)Nc2cc(C(F)(F)F)c(Cl)cn2)s1 + C=CC(=O)N1CCN(c2nc(OCC3CCCN3C)nc3c(F)c(-c4nc(N)cc(C)c4C(F)(F)F)c(Cl)cc23)C(C)C1", "viability, T/C / %": 42}
{"molecule": "C[C@@H](NC(=O)c1ncnc(N)c1Cl)c1ncc(C(=O)Nc2cc(C(F)(F)F)c(Cl)cn2)s1 + C#Cc1c(F)ccc2cc(O)cc(-c3ncc4c(N5CC6CCC(C5)N6)nc(OCC56CCCN5CC(F)C6)nc4c3F)c12", "viability, T/C / %": 92.3}
{"molecule": "NC1c2ccccc2OC12CCN(c1cnc3c(N4CCCc5ncccc54)n[nH]c3n1)CC2 (stereo unspecified) + C=CC(=O)N1CCN(c2nc(OCC3CCCN3C)nc3c(F)c(-c4nc(N)cc(C)c4C(F)(F)F)c(Cl)cc23)C(C)C1", "viability, T/C / %": 11.8}
{"molecule": "CC(=O)OC12COC1CC(O)C1(C)C(=O)C(O)C3=C(C)C(OC(=O)C(O)C(NC(=O)OC(C)(C)C)c4ccccc4)CC(O)(C(OC(=O)c4ccccc4)C21)C3(C)C (stereo unspecified) + C#Cc1c(F)ccc2cc(O)cc(-c3ncc4c(N5CC6CCC(C5)N6)nc(OCC56CCCN5CC(F)C6)nc4c3F)c12", "viability, T/C / %": 47.1}

###

Listing of recorded viability, T/C by entry.
Tested on: NCI-H23 complex spheroids with HUVEC/MSC, viability
Test: Anticancer human tumor NCI-H23 cell line growth inhibition [RAS];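 further: spheroids exposed to compound for 7 days; 100% = DMSO vehicle control viability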
Conditions: compound 3.16 µM; stronger effect = lower value
measurement-type: viability, T/C

{"molecule": "C[C@@H](NC(=O)c1ncnc(N)c1Cl)c1ncc(C(=O)Nc2cc(C(F)(F)F)c(Cl)cn2)s1", "measurement-type": "viability, T/C", "result": "90.6% [middle of 4 runs]"}
{"molecule": "C#Cc1c(F)ccc2cc(O)cc(-c3ncc4c(N5CC6CCC(C5)N6)nc(OCC56CCCN5CC(F)C6)nc4c3F)c12 (stereo not given)", "measurement-type": "viability, T/C", "result": "63.2% [middle of 8 runs]"}
{"molecule": "CC(=O)OC12COC1CC(O)C1(C)C(=O)C(O)C3=C(C)C(OC(=O)C(O)C(NC(=O)OC(C)(C)C)c4ccccc4)CC(O)(C(OC(=O)c4ccccc4)C21)C3(C)C (stereo not given)", "measurement-type": "viability, T/C", "result": "50.4% [middle of 4 runs]"}
{"molecule": "CC1(O)CCCC1n1c(=O)c(C(F)F)cc2cnc(NC3CCN(S(C)(=O)=O)CC3)nc21 (stereo not given)", "measurement-type": "viability, T/C", "result": "71.7% [middle of 4 runs]"}
{"molecule": "CCC(CC)c1cc(NC2CCC(N)C2)n2nccc2n1 (stereo not given)", "measurement-type": "viability, T/C", "result": "15.2% [middle of 4 runs]"}

###

System: NCI-H23 complex spheroids with HUVEC/MSC, viability
Assay: Anticancer human tumor NCI-H23 cell line growth inhibition [RAS];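 further: spheroids exposed to compound for 7 days; 100% = DMSO vehicle control viability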
Details: second compound 0.3 µM; first compound 0.0316 µM; stronger effect = lower value

{"compound": "C=CC(=O)Nc1cc(Nc2nccc(-c3cn(C)c4ccccc34)n2)c(OC)cc1N(C)CCN(C)C + CCn1c(-c2cc(N3CCN(C)CC3)cnc2C(C)OC)c2c3cc(ccc31)-c1csc(n1)CC(NC(=O)C1CC1C)C(=O)N1CCCC(N1)C(=O)OCC(C)(C)C2", "viability, T/C / %": 17.2}
{"compound": "C[C@@H](NC(=O)c1ncnc(N)c1Cl)c1ncc(C(=O)Nc2cc(C(F)(F)F)c(Cl)cn2)s1 + CCn1c(-c2cc(N3CCN(C)CC3)cnc2C(C)OC)c2c3cc(ccc31)-c1csc(n1)CC(NC(=O)C1CC1C)C(=O)N1CCCC(N1)C(=O)OCC(C)(C)C2", "viability, T/C / %": 22.6}
{"compound": "CCC(CC)c1cc(NC2CCC(N)C2)n2nccc2n1 (stereo not drawn) + CCn1c(-c2cccnc2C(C)OC)c2c3cc(ccc31)N1CCOC(CC(NC(=O)C(C(C)C)N(C)C(=O)C3(F)CCN(C(=O)C#CC(C)(C)N(C)C)CC3)C(=O)N3CCCC(N3)C(=O)OCC(C)(C)C2)C1", "viability, T/C / %": 22.5}
{"compound": "CC(C)NCC(C(=O)N1CCN(c2ncnc3c2C(C)CC3O)CC1)c1ccc(Cl)cc1 (stereo not drawn) + CCn1c(-c2cc(N3CCN(C)CC3)cnc2C(C)OC)c2c3cc(ccc31)-c1csc(n1)CC(NC(=O)C1CC1C)C(=O)N1CCCC(N1)C(=O)OCC(C)(C)C2", "viability, T/C / %": 18.1}
{"compound": "C=CC(=O)N1CCN(c2nc(OCC3CCCN3C)nc3c(F)c(-c4nc(N)cc(C)c4C(F)(F)F)c(Cl)cc23)C(C)C1 (stereo not drawn) + CCn1c(-c2cc(N3CCN(C)CC3)cnc2C(C)OC)c2c3cc(ccc31)-c1csc(n1)CC(NC(=O)C1CC1C)C(=O)N1CCCC(N1)C(=O)OCC(C)(C)C2", "viability, T/C / %": 14}
{"compound": "C=CC(=O)N1CCN(c2nc(OCC3CCCN3C)nc3c(F)c(-c4nc(N)cc(C)c4C(F)(F)F)c(Cl)cc23)C(C)C1 (stereo not drawn) + CCn1c(-c2cccnc2C(C)OC)c2c3cc(ccc31)N1CCOC(CC(NC(=O)C(C(C)C)N(C)C(=O)C3(F)CCN(C(=O)C#CC(C)(C)N(C)C)CC3)C(=O)N3CCCC(N3)C(=O)OCC(C)(C)C2)C1", "viability, T/C / %": 24.4}
{"compound": "O=C(c1ccc(F)c(F)c1Nc1ccc(I)cc1F)N1CC(O)([C@@H]2CCCCN2)C1 + CCn1c(-c2cccnc2C(C)OC)c2c3cc(ccc31)N1CCOC(CC(NC(=O)C(C(C)C)N(C)C(=O)C3(F)CCN(C(=O)C#CC(C)(C)N(C)C)CC3)C(=O)N3CCCC(N3)C(=O)OCC(C)(C)C2)C1", "viability, T/C / %": 26.5}
{"compound": "NC1c2ccccc2OC12CCN(c1cnc3c(N4CCCc5ncccc54)n[nH]c3n1)CC2 (stereo not drawn) + CCn1c(-c2cccnc2C(C)OC)c2c3cc(ccc31)N1CCOC(CC(NC(=O)C(C(C)C)N(C)C(=O)C3(F)CCN(C(=O)C#CC(C)(C)N(C)C)CC3)C(=O)N3CCCC(N3)C(=O)OCC(C)(C)C2)C1", "viability, T/C / %": 16.5}
